Reference source for all entries: the supplement of paper PMC7877785

Some sequences, each annotated with its measured self-splicing fitness (ln).
Test: self-splicing fitness, log relative to wild type (ln ratio); higher = more splicing; Tetrahymena group I intron in knt gene, E. coli kanamycin selection, DiMSum; sequences stand for … in CUCUCU…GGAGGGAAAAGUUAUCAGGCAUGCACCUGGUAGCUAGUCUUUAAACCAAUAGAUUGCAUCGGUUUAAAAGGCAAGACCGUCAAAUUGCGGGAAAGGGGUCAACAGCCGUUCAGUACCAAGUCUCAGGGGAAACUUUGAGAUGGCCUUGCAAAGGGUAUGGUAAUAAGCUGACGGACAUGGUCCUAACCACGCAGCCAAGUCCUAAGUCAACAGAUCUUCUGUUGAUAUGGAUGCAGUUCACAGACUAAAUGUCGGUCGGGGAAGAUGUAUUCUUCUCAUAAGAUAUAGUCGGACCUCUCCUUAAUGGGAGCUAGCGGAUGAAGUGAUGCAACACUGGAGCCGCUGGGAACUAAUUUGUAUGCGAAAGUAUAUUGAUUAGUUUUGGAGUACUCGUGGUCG;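 also: selection with 25 µg/mL kanamycin versus none on LB agar overnight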
Settings: 37 °C
Readout Kind: self-splicing fitness (ln)

biosequence=GAAGAGCAAUAUUACGGACU readout_kind="self-splicing fitness (ln)" number=-1.14
biosequence=CAUAAGCAAUAUUACGACGA readout_kind="self-splicing fitness (ln)" number=-0.546
biosequence=CCCGAGCAAUAUUACGUUAA readout_kind="self-splicing fitness (ln)" number=-2.25
